target: Serine/threonine-protein kinase MRCK alpha (Homo sapiens); conditions: at 0.1 µM;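 also: each inhibition figure is a mean value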
measured property: inhibition (%)

smiles representation	assayed system	measure unit	experimental value
NCc1ccc(-n2c(-c3nonc3N)nc3cnccc32)cc1	Serine/threonine-protein kinase MRCK alpha (Homo sapiens)	%	43.4
NC(=O)c1ccc(Oc2nccc(-c3c(-c4ccc(F)cc4)ncn3C3CCNCC3)n2)cc1	Serine/threonine-protein kinase MRCK alpha (Homo sapiens)	%	5.74
O=C(Nc1n[nH]c2nc(-c3ccco3)ccc12)C1CC1	Serine/threonine-protein kinase MRCK alpha (Homo sapiens)	%	-0.04
COc1cc(Nc2ncc(-c3ccccc3)o2)cc(OC)c1OC	Serine/threonine-protein kinase MRCK alpha (Homo sapiens)	%	2.53
Cc1ccc(NC(=O)c2ccoc2)cc1-c1ccc(C(=O)NCC2CC2)cc1	Serine/threonine-protein kinase MRCK alpha (Homo sapiens)	%	-2.51
CCc1cccc(CC)c1/C=C/c1cncc(C(=O)NC)c1	Serine/threonine-protein kinase MRCK alpha (Homo sapiens)	%	0.02
